These measurements were taken from paper PMC4347663.

Test system: BMAL1 expression (Bmal-promoter luciferase) in U2OS cells
Experiment: BMAL reporter gene assay in synchronized U2OS cells
Assay type: cell-based, human
Details: delay of peak of second cycle, 20 μM treated cells relative to DMSO treated cells
Assignment: determine reported BMAL1 Phase Delay for the given compounds.
# number then unit; no other words

Could I get BMAL1 Phase Delay for every one of these entries?
1. N#Cc1ccc(CN(Cc2cccnc2)Cc2cc(F)ccc2F)s1
2. N#Cc1ccc(CN(Cc2cccnc2)Cc2ccccc2F)s1
3. Cc1cc(Cl)ccc1CN(Cc1ccc(Cl)cc1)Cc1ccc([N+](=O)[O-])s1
4. CC(C)(C)OC(=O)CN(Cc1ccc(Cl)cc1)Cc1ccc([N+](=O)[O-])s1 [Compound 1, reference compound]
5. O=[N+]([O-])c1ccc(CN(Cc2ccc(F)cc2)Cc2cccnc2)s1
6. O=[N+]([O-])c1ccc(CN(Cc2ccc(Cl)cc2)Cc2ccccc2F)s1
7. N#Cc1ccc(CN(Cc2ccc(Cl)cc2)Cc2cccnc2)s1

1: 0 h; 2: 0 h; 3: 0 h; 4: 0 h; 5: 0 h; 6: 0 h; 7: 0 h
